- target entity: human GLP-1 receptor (human, UniProt P43220 24-463)
- method notes: cell-based or functional assay
Bridge positions count the residues as written; N and C are the ends. Square brackets hold non-standard residues; d marks the D form. Ends that are not written are not given here. * marks the point of attachment. Acetyl(2-(4-imidazolyl)) = O=C(Cc1c[nH]cn1)*; Aib = CC(C)(N)C(=O)O
assay endpoint: In vitro activity (%) compared with native peptide, vs GLP-1

binder	recorded value
Y[Aib]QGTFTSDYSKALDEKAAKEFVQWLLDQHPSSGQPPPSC (bridge 16-20) [triple agonist of SEQ ID NO: 100]	42.2
Y[Aib]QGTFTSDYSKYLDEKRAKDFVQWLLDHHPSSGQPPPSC (bridge 16-20; also: ring between positions 16 and 20, type not given here) [triple agonist of SEQ ID NO: 76]	10.3
{Acetyl(2-(4-imidazolyl))}-[Aib]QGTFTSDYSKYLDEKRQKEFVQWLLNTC (bridge 15-19; numbers in words are those of the source; also: ring between positions 16 and 20, type not given here) [triple agonist of SEQ ID NO: 81]	7.8
H[Aib]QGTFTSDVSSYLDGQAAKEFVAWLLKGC [triple agonist of SEQ ID NO: 6]	17
[Acetyl(2-(4-imidazolyl))][Aib]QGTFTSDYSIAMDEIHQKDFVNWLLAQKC (bridge 16-20; not fully specified) [triple agonist of SEQ ID NO: 92]	0.8
